molecular target: FGFR1 (UniProt P11362); test: phosphorylation enrichment, bacterial display (enrichment ratio); higher = better substrate or ligand; peptides without Tyr show the background;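 also: 11-residue human phosphosite peptides and single-mutation variants displayed on the E. coli surface, counted by deep sequencing, each peptide's frequency after selection divided by its frequency in the unselected input library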;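 also: frequency after pTyr selection over input frequency; kinase dosed for 20-30% of maximal phosphorylation in three min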
Sequence (P11362 whole entry, looked up): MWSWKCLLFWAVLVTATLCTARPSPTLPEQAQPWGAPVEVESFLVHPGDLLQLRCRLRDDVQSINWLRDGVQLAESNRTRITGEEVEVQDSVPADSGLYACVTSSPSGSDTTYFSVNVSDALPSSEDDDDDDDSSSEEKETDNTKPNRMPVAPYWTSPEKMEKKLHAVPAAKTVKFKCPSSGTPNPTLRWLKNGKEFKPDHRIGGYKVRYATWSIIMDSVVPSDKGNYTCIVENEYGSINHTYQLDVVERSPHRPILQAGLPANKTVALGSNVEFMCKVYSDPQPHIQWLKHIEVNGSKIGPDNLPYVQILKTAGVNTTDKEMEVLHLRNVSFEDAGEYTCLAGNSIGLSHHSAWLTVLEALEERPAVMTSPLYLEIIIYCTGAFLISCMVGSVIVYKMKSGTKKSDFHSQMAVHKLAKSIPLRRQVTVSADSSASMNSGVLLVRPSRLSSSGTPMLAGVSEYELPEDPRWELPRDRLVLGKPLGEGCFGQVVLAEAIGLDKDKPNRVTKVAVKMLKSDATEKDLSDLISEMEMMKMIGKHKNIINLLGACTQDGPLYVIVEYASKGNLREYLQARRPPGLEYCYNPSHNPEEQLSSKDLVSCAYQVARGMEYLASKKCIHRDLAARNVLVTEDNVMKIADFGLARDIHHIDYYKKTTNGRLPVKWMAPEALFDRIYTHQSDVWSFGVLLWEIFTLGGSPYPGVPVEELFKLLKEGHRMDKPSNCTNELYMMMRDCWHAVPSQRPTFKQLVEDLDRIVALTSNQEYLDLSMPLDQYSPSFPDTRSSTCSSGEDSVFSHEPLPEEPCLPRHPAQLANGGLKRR
observed.property: phosphorylation enrichment

ordered.residues	observed.property	measured
TRSFKCLLLSM [NF1_Y491_Y491C_YF]	phosphorylation enrichment	0.531
PLRAYYLIARV [HLCS_Y635_D634Y]	phosphorylation enrichment	1.2
AGIENYTSRFG [NKD2_Y256]	phosphorylation enrichment	0.434
LEAVSYSSPFA [RNLS_Y190_R193P_YF]	phosphorylation enrichment	1.12
TFLRTYTDTMQ [TSPAN7_Y124_A127T]	phosphorylation enrichment	0.486
SVTCTYCPALN [TP53_Y126_S127C]	phosphorylation enrichment	0.564
RFLRGYRQDAF [HLA-A_Y137_YF]	phosphorylation enrichment	0.569
RGRSTYYWPSP [GAGE12J_Y9_R13S]	phosphorylation enrichment	1.49
CNTIHYNFMCN [TP53_Y234_T230N_YF]	phosphorylation enrichment	0.513
DKATEYIQYMR [MAX_Y70]	phosphorylation enrichment	0.479
ENELTYYCYKK [CD59_Y86_C89Y]	phosphorylation enrichment	1.68
EVEFQYPFRLH [SYP_Y73_E72Q]	phosphorylation enrichment	0.475
EILLSYPRTGF [TGM1_Y365_L366P_YF]	phosphorylation enrichment	0.488
AHAGEYGVEAL [HBA1_Y25_A27V]	phosphorylation enrichment	0.499
GYIISYREEEQ	phosphorylation enrichment	0.532
